Molecular target: T1, pCD163-SRCR4-7-huFc (porcine, UniProt Q2VL90 372-818, limits assumed)
T1 construct: also called pCD163:SRCR4-7-Fc; pCD163-SRCR4-7-Fc; not shown: human Fc (huFc)
T1 sequence (Q2VL90 372-818 limits assumed): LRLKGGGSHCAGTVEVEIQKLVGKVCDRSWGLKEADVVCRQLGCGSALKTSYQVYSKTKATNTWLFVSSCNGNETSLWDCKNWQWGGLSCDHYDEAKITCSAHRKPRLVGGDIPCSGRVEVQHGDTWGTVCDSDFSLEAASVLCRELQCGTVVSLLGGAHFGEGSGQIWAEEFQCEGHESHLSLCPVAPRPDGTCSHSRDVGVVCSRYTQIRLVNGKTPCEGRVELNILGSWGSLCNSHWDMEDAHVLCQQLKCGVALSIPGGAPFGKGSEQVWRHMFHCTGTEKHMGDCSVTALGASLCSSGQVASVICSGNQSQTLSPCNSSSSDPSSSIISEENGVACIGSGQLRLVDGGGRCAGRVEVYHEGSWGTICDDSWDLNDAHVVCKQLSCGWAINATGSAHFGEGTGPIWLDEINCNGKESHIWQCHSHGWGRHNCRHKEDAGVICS
Assay: SPR (Biacore 3000), antigen amine-coupled on CM5, VHH injected, pH 7.4
Would you mind telling me the reported pKd of each entry?
Answers are plain numbers, as −log10 of the molar value.

Answered cases to consult:
binder | pKd
VHH 019 (3E11) (VHH, Llama single domain antibody; also called 47(#19); VHCDR3 47(#19); not shown: tags: c-myc tag in periplasmic extract (ELISA, FACS); FLAG and His tags in purified VHH (SPR, infection assays)) VHH: QVQLQESGGGLVQVGSSLRLSCVTSGRTPSRYVMGWFRQAPGQEREFVAAISWSGRAPYADSVKGRFTISRDNAKNTVYLQMNSLKPEDTGVYYCAGGEGAIKWTTLDAYDYWGQGTQVTVSS | 7.68
VHH 020 (3H11) (VHH, Llama single domain antibody; also called 48(#20); VHCDR3 48(#20); not shown: tags: c-myc tag in periplasmic extract (ELISA, FACS); FLAG and His tags in purified VHH (SPR, infection assays)) VHH: QVQLQESGGGLVQVGGSLRLSCVASGRTPSRYVMGWFRQAPGQEREFVAGIAWSGRAPYADSVKGRFVISRDSAKNTVYLQMNSLKSEDTGVYYCAGGEGAILWTTPGAYNYWGQGTQVTVSS | 7.74
VHH 001 (1B02) (VHH, Llama single domain antibody; also called 144(#1); VHCDR3 144(#1); not shown: tags: c-myc tag in periplasmic extract (ELISA, FACS); FLAG and His tags in purified VHH (SPR, infection assays)) VHH: EVQLVESGGGLVQAGGSLSLSCAASGGTLAMYAMSWFRQAPGKDRKFVAAINTSGRYSRYADSVKGRFTISRDNAKNTATLQMNSLEPEDTAVYYCAATDKGNWALAMSYDYWGQGTQVTVSS | 8.03
VHH 017 (3D03) (VHH, Llama single domain antibody; also called 29(#17); VHCDR3 29(#17); not shown: tags: c-myc tag in periplasmic extract (ELISA, FACS); FLAG and His tags in purified VHH (SPR, infection assays)) VHH: QLQLVESGGGLVQPGGSLRLSCAASGFTLDDYTIGWFRQAPGKEREGVSCINSITSNTYYADSVKGRFTISRDNAKNTVYLQMNSLTAEDTAIYYCAADSGLFSGSSCLKYRAMRFGSWGQGTQVTVSS | 7.65

For the 3 binders below, give their pKd values.
1. VHH 002 (1B04) (VHH, Llama single domain antibody; also called 76(#2); VHCDR3 76(#2); not shown: tags: c-myc tag in periplasmic extract (ELISA, FACS); FLAG and His tags in purified VHH (SPR, infection assays)) VHH: QVQLVESGGGLVQAGGSLRLSCAASGLTFVTYSMGWFRQAPGKEREFVAAHRWSGSAYYAEHADSVEGRFTISRDYAKNMLYLQMNSLKHEDTAVYYCAAGVGSAAQYRYWGRGTQVTVSS
2. VHH 012 (2C07) (VHH, Llama single domain antibody; also called 41(#12); VHCDR3 41(#12); not shown: tags: c-myc tag in periplasmic extract (ELISA, FACS); FLAG and His tags in purified VHH (SPR, infection assays)) VHH: QLQLVESGGGLVQAGGSLRLSCVASGRTFSRYAMGWFRQAPGKEREFVAAIAWSTGSTYYANSVKGRFAISGDNAKNTVYLQMNSLKPEDTAVYYCAAETRYCSGFGCLDPRTYGSWGQGTQVTVSS
3. VHH 011 (2B06) (VHH, Llama single domain antibody; also called 57(#11); VHCDR3 57(#11); not shown: tags: c-myc tag in periplasmic extract (ELISA, FACS); FLAG and His tags in purified VHH (SPR, infection assays)) VHH: EVQLVESGGGLVQAGGSLRLSCAASGRTLSVYGTGWFRQAPGKEREFVAGISGTTGSTLYADSVKGRFTISRDNAKNTVYLQMNSLKSEDTALYYCAAGGRVYITTSSWAYWGQGTQVTVSS

7.72
8.82
7.46

For each of the binders below, note its pKd.
1. VHH 008 (1H01) (VHH, Llama single domain antibody; also called 78(#8); VHCDR3 78(#8); not shown: tags: c-myc tag in periplasmic extract (ELISA, FACS); FLAG and His tags in purified VHH (SPR, infection assays)) VHH: QVQLVESGGGLVQAGGSLRLSCAASGRTFGTYSMGWFRQAPGKEREFVAAHRWSGSAYYAEHADSVEGRFTISRDYAKNMLYLQMNSLKHEDTAVYYCAAGVGSEAQYRYWGRGTQVTVSS
2. VHH 015 (2G01) (VHH, Llama single domain antibody; also called 150(#15); VHCDR3 150(#15); not shown: tags: c-myc tag in periplasmic extract (ELISA, FACS); FLAG and His tags in purified VHH (SPR, infection assays)) VHH: QVQLVESGGGLVQAGDTLRLSCTASGRTFSSYSMGWFRQAPGKEREFVAAITWNGYITNYADSVKGRFTISRDNTKNTVFLQMNSLKPEETAVYYCAATTFSTTSPISRTYNYWGPGTQVTVSS

7.46
8.10

Each binder below has a recorded value; state its pKd.
1. VHH 016 (2H11) (VHH, Llama single domain antibody; also called 77(#16); VHCDR3 77(#16); not shown: tags: c-myc tag in periplasmic extract (ELISA, FACS); FLAG and His tags in purified VHH (SPR, infection assays)) VHH: EVQLVESGGGLVQAGGSLRLSCAASGRTFAPGSMGWFRQAPGKEREFVAAHRWSGSAYYADYADSVEGRFTISRDYAKNMVYLQMNSLKPGDTAVYYCAAGVGSAAQYTYWGRGTQVTVSS
2. VHH 023 (4E10) (VHH, Llama single domain antibody; also called 70(#23); VHCDR3 70(#23); not shown: tags: c-myc tag in periplasmic extract (ELISA, FACS); FLAG and His tags in purified VHH (SPR, infection assays)) VHH: QVQLVESGGGLVQAGGSLRLSCVASSRTSSTYAMGWFRQGPGKERDFVAIISFGGTFYADSVKGRFTISRDNAKNTVYLQMNSLKPEDTAVYYCAAGRTLSKRADSYASWGQGTQVTVSS

1. 7.52
2. 8.82

Find the recorded pKd belonging to VHH 018 (3E01) (VHH, Llama single domain antibody; also called 49(#18); VHCDR3 49(#18); not shown: tags: c-myc tag in periplasmic extract (ELISA, FACS); FLAG and His tags in purified VHH (SPR, infection assays)) VHH: QVQLQESGGGLVQVGGSLRLSCVASGRAPSRYVMGWFRQAPGQEREFVAGIAWSGRAPYADSVKGRSTISRDNAKNTVYLQMNSLKPEDTGVYYCAGGEGAIRWTTLDAYDYWGQGTQVTVSS and report it.
7.38
